study system: recombinant SmCB1 (Schistosoma mansoni, UniProt Q8MNY2, T185A/T300A)
Sequence (Q8MNY2 87-340 T185A/T300A): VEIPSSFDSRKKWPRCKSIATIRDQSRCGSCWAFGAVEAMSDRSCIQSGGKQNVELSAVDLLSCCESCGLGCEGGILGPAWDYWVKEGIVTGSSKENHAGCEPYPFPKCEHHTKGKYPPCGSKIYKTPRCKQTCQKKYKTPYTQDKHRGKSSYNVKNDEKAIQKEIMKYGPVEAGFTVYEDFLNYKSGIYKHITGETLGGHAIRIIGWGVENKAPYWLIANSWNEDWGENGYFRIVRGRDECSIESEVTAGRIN
method: SmCB1 kinetic inhibition assay with fluorogenic substrate Cbz-Phe-Arg-AMC
Assay type: biochemical
condition parameters: Table S2, carbadipeptide nitriles; substrate Cbz-Phe-Arg-AMC; read-out: SmCB1 inhibition Ki
pKi: −log10 of the molar value.
pKi listing for selected compounds.

Worked examples, 3 compounds total:
Returns the measured pKi for the input compound. Input: CC(C)C[C@H](NC(=O)c1ccc(-c2ccccc2)cc1)C(=O)NCC#N [Gü2420]
7.25

Returns the measured pKi for the input compound. Input: CC(C)(C)OC(=O)N[C@H](Cc1ccccc1)C(=O)NCC#N [Gü1133]
< 5.00

Returns the measured pKi for the input compound. Input: CC(C)(C)OC(=O)N[C@@H](Cc1ccccc1)C(=O)NCC#N [Gü809]
< 5.00

Others:
Returns the measured pKi for the input compound. Input: CCCC[C@H](NC(=O)OC(C)(C)C)C(=O)NCC#N [Gü967]
6.06

Returns the measured pKi for the input compound. Input: CC(C)(C)OC(=O)N[C@@H](Cc1ccc(-c2ccccc2)cc1)C(=O)NCC#N [Gü1124]
6.57

Returns the measured pKi for the input compound. Input: CC(C)(C)OC(=O)N[C@@H](COCc1ccccc1)C(=O)NCC#N [Gü930]
< 5.00

---

method: Cytotoxicity, XTT test, HUVEC
Format: cell-based
condition parameters: human, 1 µM, % viability vs. untreated cells, read-out: Cell line viability after 72 h
viability at 72 h, 1 µM listing for selected compounds.
Report as a plain number; the unit % is understood.

Worked examples, 4 compounds total:
Returns the measured viability at 72 h, 1 µM for the input compound. Input: CC(C)CC(NC(=O)NCc1ccccc1)C(=O)N(C)N(C)C#N (centres unmarked)
106

Returns the measured viability at 72 h, 1 µM for the input compound. Input: "CCCCCN(C#N)N(C)C(=O)[C@H](Cc1ccccc1)NC(=O)OCc1ccccc1"
104

Returns the measured viability at 72 h, 1 µM for the input compound. Input: CN(C#N)N(C)C(=O)[C@H](CC1CCCCC1)NC(=O)OCc1ccccc1 [Compound 11a]
92

Returns the measured viability at 72 h, 1 µM for the input compound. Input: "CC(C)C[C@H](NC(=O)c1ccc(-c2noc(-c3cccs3)n2)cc1)C(=O)N(C)N(C)C#N"
91

Others:
Returns the measured viability at 72 h, 1 µM for the input compound. Input: "CN(C(=O)[C@H](Cc1ccccc1)NC(=O)OCc1ccccc1)N(C#N)CCc1ccccc1"
101
